Where do the numbers come from? From the supplement of paper PMC7125110.

B1: glmS ribozyme (parent)
chain: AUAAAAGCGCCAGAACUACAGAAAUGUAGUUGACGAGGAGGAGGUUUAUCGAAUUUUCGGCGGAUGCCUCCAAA

Variants of: B1
Assay: self-cleavage kobs at 640 uM GlcN6P; higher = faster cleavage; RNA array
Settings: with glucosamine-6-phosphate
This sample holds only a part of the variants without activity.
Reported self-cleavage kobs at 640 uM GlcN6P values follow for various variants
resultType: self-cleavage kobs at 640 uM GlcN6P

INSERT INTO results (mutantname, val) VALUES
  ('G40A G51C', '< 1e-05 s⁻¹'),
  ('A14G A15U U30G', '0.0127 s⁻¹'),
  ('U56G G66A', '0.00136 s⁻¹'),
  ('G38C G44U G51C A52C C71U', '< 1e-05 s⁻¹'),
  ('G7U G13C A39G', '< 1e-05 s⁻¹'),
  ('A12U A33C', '0.000178 s⁻¹'),
  ('G29A U56A A64G', '0.000408 s⁻¹'),
  ('A39U A48U U55C G59U', '< 1e-05 s⁻¹'),
  ('A14U A36G U47A', '< 1e-05 s⁻¹'),
  ('A39C G40C A52G', '< 1e-05 s⁻¹'),
  ('G13U U30C', '6.12e-05 s⁻¹'),
  ('C8G G21U C34A A64G', '< 1e-05 s⁻¹'),
  ('G9U G13C G40A G44U G63U', '< 1e-05 s⁻¹'),
  ('U46C G51U A52G U55A C61G', '< 1e-05 s⁻¹'),
  ('C34U G35C C50U C67A', '< 1e-05 s⁻¹'),
  ('A48C U55A', '8.73e-05 s⁻¹'),
  ('G9A G41A A53U', '< 1e-05 s⁻¹'),
  ('C16U U46C C50U', '< 1e-05 s⁻¹'),
  ('A6G G7A G43C', '< 1e-05 s⁻¹'),
  ('A36U U45C', '< 1e-05 s⁻¹'),
  ('C10A A12G C16A U47C G63A C67G', '< 1e-05 s⁻¹'),
  ('C8A A39G A52U', '< 1e-05 s⁻¹'),
  ('U54A U57A', '4.89e-05 s⁻¹'),
  ('A14G U54C C61G G62C', '< 1e-05 s⁻¹'),
  ('A12C A14G G60U', '< 1e-05 s⁻¹'),
  ('U46C A52U', '3.24e-05 s⁻¹'),
  ('A6G G59A C67A', '< 1e-05 s⁻¹'),
  ('G44A U69A', '< 1e-05 s⁻¹'),
  ('U54G U56A U69G', '7.97e-05 s⁻¹'),
  ('G43C A52C U57C', '< 1e-05 s⁻¹'),
  ('A12C A48C G60C G62C C68A', '< 1e-05 s⁻¹'),
  ('A15G G44C G59U', '< 1e-05 s⁻¹'),
  ('A12C G38U C67U', '< 1e-05 s⁻¹'),
  ('C8G A36U C70U', '< 1e-05 s⁻¹'),
  ('G29C A42G G43U G51C G62C', '< 1e-05 s⁻¹'),
  ('G26U G40U', '0.000586 s⁻¹'),
  ('G9A G43A', '< 1e-05 s⁻¹'),
  ('C11U A14G A52G', '8.93e-05 s⁻¹'),
  ('U47A A53G', '0.00725 s⁻¹'),
  ('G7U A39G', '< 1e-05 s⁻¹'),
  ('G37A C71U', '0.000478 s⁻¹'),
  ('A12C A39U', '0.00219 s⁻¹'),
  ('A23C C71U', '0.00652 s⁻¹'),
  ('A14C G40C', '0.000114 s⁻¹'),
  ('G38C G41C', '< 1e-05 s⁻¹'),
  ('G32C A33U', '< 1e-05 s⁻¹');
